biological target: human OT7T175 (metastin receptor) (human, UniProt Q969F8 1-398); assay: cell-based or functional assay
Sequence (Q969F8 whole entry L364H): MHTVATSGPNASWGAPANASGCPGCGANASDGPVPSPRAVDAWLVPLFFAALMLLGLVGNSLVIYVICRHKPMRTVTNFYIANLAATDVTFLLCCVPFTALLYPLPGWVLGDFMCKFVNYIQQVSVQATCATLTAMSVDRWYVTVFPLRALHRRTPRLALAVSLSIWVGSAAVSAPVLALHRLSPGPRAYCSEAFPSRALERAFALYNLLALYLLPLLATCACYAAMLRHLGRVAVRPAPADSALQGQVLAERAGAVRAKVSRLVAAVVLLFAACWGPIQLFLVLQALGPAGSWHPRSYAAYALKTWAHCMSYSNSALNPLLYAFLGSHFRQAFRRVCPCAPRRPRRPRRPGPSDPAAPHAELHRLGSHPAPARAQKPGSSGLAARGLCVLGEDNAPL
Non-standard residues stand in square brackets, D forms with d. No end group written: not given here. *: point of attachment. Cyclohexanecarbonyl = O=C(C1CCCCC1)*; Arg(Me) = CNC(=N)NCCC[C@H](N)C(=O)O; d3Pal = N[C@H](Cc1cccnc1)C(=O)O; Cha = N[C@@H](CC1CCCCC1)C(=O)O; azaGly = NNC(=O)O
Entries and their measured Ca ion level-increasing activity (FLIPR) follow.

>>> recorded_value("[d3Pal][dN][Cha]NSF[azaGly]L[Arg(Me)]F-NH2 (N-terminus assumed; SMILES CNC(=N)NCCC[C@H](NC(=O)[C@H](CC(C)C)NC(=O)NNC(=O)[C@H](Cc1ccccc1)NC(=O)[C@H](CO)NC(=O)[C@H](CC(N)=O)NC(=O)[C@H](CC1CCCCC1)NC(=O)[C@@H](CC(N)=O)NC(=O)[C@H](N)Cc1cccnc1)C(=O)N[C@@H](Cc1ccccc1)C(N)=O, also called Compound No. 290) [[D-Pya(3)1,D-Asn2,Cha3,AzaGly7,Arg(Me)9]MS10]")
"1 x Metastin (1-54)"
>>> recorded_value("Ac-ANSF[azaGly]L[Arg(Me)]F-NH2 (SMILES CNC(=N)NCCC[C@H](NC(=O)[C@H](CC(C)C)NC(=O)NNC(=O)[C@H](Cc1ccccc1)NC(=O)[C@H](CO)NC(=O)[C@H](CC(N)=O)NC(=O)[C@H](C)NC(C)=O)C(=O)N[C@@H](Cc1ccccc1)C(N)=O) [des(1-2)-Acetyl-[Ala3,AzaGly7,Arg(Me)9]MS10]")
"1 x Metastin (1-54)"

Then this binder:
Exercise: Given Cyclohexanecarbonyl-NSF[azaGly]L[Arg(Me)]F-NH2 (also called Compound No. 278) [des(1-3)-Cyclohexanecarbonyl-[AzaGly7,Arg(Me)9]MS10] , respond with its Ca ion level-increasing activity (FLIPR).
Key: 2 x Metastin (1-54)
